- Tested on: cloned human or rodent CNS receptors, channels, and transporters (PDSP panel)
- assayProtocol: PDSP GPCR panel primary binding assays at 10 μM
- setupConditions: Alpha2C; primary assay, replicate 4
Inhibition 4 by entry:
Number only, in %; omit the unit.

| compound | number |
| --- | --- |
| CC(=O)N1CCC(NC(=O)NC23CC4CC(CC(C4)C2)C3)CC1 [UNC10302683A, AR9281] | -1.81 |
| CNc1nc(C)nc(N[C@H]2CCC[C@@H](C(=O)NCc3ccc(C#N)cc3C(F)(F)F)C2)n1 [UNC10302679A, GSK2256294A] | 2.93 |
| CCC(=O)N1CCC(NC(=O)Nc2ccc(OC(F)(F)F)cc2)CC1 [UNC10302681A, TPPU] | -8.31 |

Below: the item to evaluate.
// Inhibition 4 value for O=C(NC1CC1)C(=O)C(Cc1ccccc1)NC(=O)[C@H]1CCC(=O)N1Cc1ccccc1 (stereo partly shown) [UNC10302676A, ABT-957 (Alicapistat)] : -11.46
